# Target desc: recombinant human glucagon receptor (human, UniProt P47871 26-477)
# Sequence (P47871 26-477): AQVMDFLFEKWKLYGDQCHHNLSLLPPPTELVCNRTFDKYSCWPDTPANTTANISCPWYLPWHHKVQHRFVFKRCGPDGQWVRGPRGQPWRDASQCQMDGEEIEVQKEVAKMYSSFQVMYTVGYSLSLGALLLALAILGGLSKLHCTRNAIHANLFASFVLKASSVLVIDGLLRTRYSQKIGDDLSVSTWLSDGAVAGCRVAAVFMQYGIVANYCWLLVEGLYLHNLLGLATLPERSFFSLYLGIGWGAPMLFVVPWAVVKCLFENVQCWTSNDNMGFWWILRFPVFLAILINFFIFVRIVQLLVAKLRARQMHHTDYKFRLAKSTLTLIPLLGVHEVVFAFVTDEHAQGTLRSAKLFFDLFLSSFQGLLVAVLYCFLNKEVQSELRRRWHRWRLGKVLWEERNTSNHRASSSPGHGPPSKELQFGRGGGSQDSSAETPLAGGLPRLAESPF
# Procedure summary: cell-based or functional assay
No end group written: not given here.
Quantity: EC50, intracellular cAMP (HTRF)

Lab note: YXQGTFLSDYSKYLDXKKAXEFVEWLLETGPSSGAPPPS (Aib at positions 2 and 16; K20 epsilon-amino group conjugated with ([2-(2-Amino-ethoxy)-ethoxy]-acetyl)2-(γGlu)2-CO-(CH2)16-CO2H; C-terminal primary amide) [Example 3] gave EC50, intracellular cAMP (HTRF) of 3.4 pM

Lab note: YXQGTFTSDYSKYLDXKKAXEFVEWLLETGPSSGAPPPS (Aib at positions 2 and 16; K20 epsilon-amino group conjugated with ([2-(2-Amino-ethoxy)-ethoxy]-acetyl)2-(γGlu)2-CO-(CH2)16-CO2H; C-terminal primary amide) [Example 1] gave EC50, intracellular cAMP (HTRF) of 4.36 pM

Lab note: YXQGTFTSDYSKYLDXKKAXEFVEWLLETGPSSGAPPPS (Aib at positions 2 and 16; K20 epsilon-amino group conjugated with ([2-(2-Amino-ethoxy)-ethoxy]-acetyl)2-(γGlu)2-CO-(CH2)18-CO2H; C-terminal primary amide) [Example 2] gave EC50, intracellular cAMP (HTRF) of 11.2 pM

Lab note: YXQGTFTSDYSKYLDXKKAXEFVAWLLEE (Aib at positions 2 and 16; K20 epsilon-amino group conjugated with ([2-(2-Amino-ethoxy)-ethoxy]-acetyl)2-(γGlu)1-CO-(CH2)18-CO2H; C-terminal acid) [Example 7] gave EC50, intracellular cAMP (HTRF) of 16.6 pM

Lab note: YAEGTFISDYSIAMDKIHQQDFVNWLLAQKGKKNDWKHNITQ-NH2 [human GIP(1-42)NH2] gave EC50, intracellular cAMP (HTRF) of > 10000 pM

Lab note: YXQGTFTSDYSKYLDXKKAXEFVAWLLEE (Aib at positions 2 and 16; K20 epsilon-amino group conjugated with ([2-(2-Amino-ethoxy)-ethoxy]-acetyl)2-(γGlu)1-CO-(CH2)16-CO2H; C-terminal acid) [Example 6] gave EC50, intracellular cAMP (HTRF) of 4.13 pM
